Kindly supply the reported pIC50 values for the records listed here.
Molecular target: recombinant human transglutaminase 2 (Homo sapiens, UniProt P21980)
Construct: purchased Zedira T022
Sequence (P21980 whole entry): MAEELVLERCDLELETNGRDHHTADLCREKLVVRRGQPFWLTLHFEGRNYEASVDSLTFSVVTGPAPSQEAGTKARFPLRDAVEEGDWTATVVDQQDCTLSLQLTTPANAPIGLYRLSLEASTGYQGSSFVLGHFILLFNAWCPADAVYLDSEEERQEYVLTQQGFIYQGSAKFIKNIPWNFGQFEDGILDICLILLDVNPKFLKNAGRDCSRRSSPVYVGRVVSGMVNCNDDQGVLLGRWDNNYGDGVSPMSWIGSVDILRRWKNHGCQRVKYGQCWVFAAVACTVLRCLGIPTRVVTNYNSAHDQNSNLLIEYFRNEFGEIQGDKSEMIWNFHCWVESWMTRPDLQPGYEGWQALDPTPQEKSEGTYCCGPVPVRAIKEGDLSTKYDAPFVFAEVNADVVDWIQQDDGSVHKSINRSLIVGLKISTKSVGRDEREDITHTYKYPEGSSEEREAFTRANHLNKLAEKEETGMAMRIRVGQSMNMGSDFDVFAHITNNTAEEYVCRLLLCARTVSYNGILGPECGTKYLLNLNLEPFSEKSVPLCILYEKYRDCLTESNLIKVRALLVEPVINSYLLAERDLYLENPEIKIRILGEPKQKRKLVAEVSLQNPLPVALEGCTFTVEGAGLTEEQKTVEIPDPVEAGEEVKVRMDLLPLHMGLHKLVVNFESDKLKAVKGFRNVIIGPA
Assay: Transglutaminase assay (DCC-assay): incorporation of dansylcadaverine into dimethylcasein
Format: biochemical
Settings: recombinant human TG2 10 nM; dansylcadaverine incorporation into dimethylcasein; read-out: IC50 TG2
pIC50: −log10 of the molar value.

Consider the worked cases shown below.
> print(dat)
                                   compound  result.value
1  CNC(=O)C(=O)CC[C@H](NC(=O)c1cn(C)nn1)C(=O)Nc1cccn(CC(=O)NC2C3CC4CC(C3)CC2C4)c1=O (stereo partly drawn) [II-133]  5.60 to 6.40
2  CNC(=O)C(=O)CC[C@H](NC(=O)c1oc2ccccc2c1C)C(=O)Nc1cccn(CC(=O)NC2C3CC4CC2CC(O)(C4)C3)c1=O (stereo partly drawn) [II-68]  6.40 to 7.40
3  CNC(=O)C(=O)CC[C@H](NC(=O)c1ccnn1C)C(=O)Nc1cccn(CC(=O)NC2C3CC4CC(C3)CC2C4)c1=O (stereo partly drawn) [II-140]  6.40 to 7.40
4  CNC(=O)C(=O)CC[C@H](NC(=O)c1coc2ccccc12)C(=O)Nc1cccn(CC(=O)NC2C3CC4CC(C3)CC2C4)c1=O (stereo partly drawn) [II-136]  6.40 to 7.40
5  CNC(=O)C(=O)CC[C@H](NC(=O)C1Cc2ccccc2C1)C(=O)Nc1cccn(CC(=O)NC2C3CC4CC(C3)CC2C4)c1=O (stereo partly drawn) [II-13]        > 7.40

Provide each entry's pIC50 from the list below.
1. CNC(=O)C(=O)CC[C@H](NC(=O)c1cc(Br)c(Br)s1)C(=O)Nc1cccn(CC(=O)NC2C3CC4CC(C3)CC2C4)c1=O (stereo partly drawn) [II-45]
2. CNC(=O)C(=O)CC[C@H](NC(=O)c1oc2ccccc2c1C)C(=O)Nc1cccn(CC(=O)NC2C3CC4CC2CC(F)(C4)C3)c1=O (stereo partly drawn) [II-69]
3. CNC(=O)C(=O)CC[C@H](NC(=O)c1cnc(NC(C)=O)s1)C(=O)Nc1cccn(CC(=O)NC23CC(C2)C3)c1=O [II-191]
4. CNC(=O)C(=O)CC[C@H](NC(=O)c1cncc(C(=O)O)c1)C(=O)Nc1cccn(CC(=O)NC2C3CC4CC(C3)CC2C4)c1=O (stereo partly drawn) [II-64]

1. > 7.40
2. > 7.40
3. 5.60 to 6.40
4. 6.40 to 7.40

====

Assay: logD by shake flask method (octanol / PBS pH 7.4, HPLC)
Type: physicochemical
Conditions: octanol / PBS pH 7.4, shake flask
observed property: logD

Would you please look over these solved cases?
compound	observed property	result value
CNC(=O)C(=O)CC[C@H](NC(=O)c1ncns1)C(=O)Nc1cccn(CC(=O)NC23CC(C2)C3)c1=O [II-199]	logD	< 1
CNC(=O)C(=O)CC[C@H](NC(=O)c1cncnc1C)C(=O)Nc1cccn(CC(=O)NC2C3CC4CC2CC(C(=O)O)(C4)C3)c1=O (stereo partly drawn) [II-173]	logD	< 1
O=C(Cn1cccc(NC(=O)[C@H](CCC(=O)C(=O)NC2CCCC2)NC(=O)c2cn3ccsc3n2)c1=O)N[C@@H]1C[C@@H]2CC[C@H]1C2 [II-179]	logD	1 to 3
Cc1c(C(=O)N[C@@H](CCC(=O)C(N)=O)C(=O)Nc2cccn(CC(=O)N[C@H]3C[C@H]4CC[C@]3(C)C4(C)C)c2=O)oc2ccccc12 [II-151]	logD	1 to 3
CNC(=O)C(=O)CC[C@H](NC(=O)c1ccc(Br)s1)C(=O)Nc1cccn(CC(=O)NC2C3CC4CC(C3)CC2C4)c1=O (stereo partly drawn) [II-23]	logD	3 to 5
CNC(=O)C(=O)CC[C@H](NC(=O)c1nc(Cl)sc1C)C(=O)Nc1cccn(CC(=O)NC2C3CC4CC(C3)CC2C4)c1=O (stereo partly drawn) [II-31]	logD	1 to 3

Batch: logD for all items listed.
1. CNC(=O)C(=O)CC[C@H](NC(=O)c1snnc1C1CC1)C(=O)Nc1cccn(CC(=O)NC2C3CC4CC(C3)CC2C4)c1=O (stereo partly drawn) [II-202]
2. Cc1nc(C(F)(F)F)sc1C(=O)N[C@@H](CCC(=O)C(N)=O)C(=O)Nc1cccn(CC(=O)NC2C3CC4CC(C3)CC2C4)c1=O (stereo partly drawn) [II-126]
3. CNC(=O)C(=O)CC[C@H](NC(=O)C1CCc2ccccc2C1)C(=O)Nc1cccn(CC(=O)NC2C3CC4CC2CC(C(=O)N(C)C)(C4)C3)c1=O (stereo partly drawn) [II-174]

1: < 1; 2: < 1; 3: < 1

These measurements were taken from patent US20240383856A1.
